- Experimental System: CYP2D6 (Homo sapiens)
- Sequence (P10635 whole entry): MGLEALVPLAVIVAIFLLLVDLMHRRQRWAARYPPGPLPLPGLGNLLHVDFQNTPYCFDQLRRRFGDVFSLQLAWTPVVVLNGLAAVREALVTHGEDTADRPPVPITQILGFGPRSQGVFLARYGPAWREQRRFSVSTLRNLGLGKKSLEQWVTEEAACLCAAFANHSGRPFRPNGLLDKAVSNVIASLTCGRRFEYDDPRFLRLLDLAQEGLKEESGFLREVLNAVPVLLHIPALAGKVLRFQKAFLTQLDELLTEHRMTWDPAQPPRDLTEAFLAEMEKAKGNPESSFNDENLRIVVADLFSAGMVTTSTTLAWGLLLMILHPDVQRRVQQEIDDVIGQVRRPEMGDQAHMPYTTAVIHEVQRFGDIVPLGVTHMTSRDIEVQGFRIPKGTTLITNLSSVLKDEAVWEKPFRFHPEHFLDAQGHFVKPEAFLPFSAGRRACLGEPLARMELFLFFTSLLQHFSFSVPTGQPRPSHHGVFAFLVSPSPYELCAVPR
- Assay Summary: CYP inhibition in human liver microsomes
- Test Settings: human, human liver microsomes, probe bufuralol
Examples of compounds with documented activity at 20 min, 10 µM follow.

Param item = CCc1cc(Cl)c(OC)c(N2CCN(CC(O)CCNC(=O)c3cc4ccccc4[nH]3)CC2)c1 (stereo not drawn) ; retrieve measured activity at 20 min, 10 µM.
94.7%

Endpoint output: activity at 20 min, 10 µM of Cc1nc2c([nH]1)c(=O)n(C)c(=O)n2Cc1ccco1 . Value?
94.7%

Fill in the blank: the reported activity at 20 min, 10 µM of CC(C)(O)c1ccccc1CC[C@@H](SCC1(CC(=O)O)CC1)c1cccc(/C=C/c2ccc3ccc(Cl)cc3n2)c1 is ____.
88.4%
